assay: Toxicokinetics of PNA5 in Beagle dog plasma; conditions: both, Beagle, dog, plasma, sc, 20 mg/kg/day, AUC0–2, dogs, plasma, s.c. 20 mg/kg/day, day 1, sexes combined, mean ± SD, n = 10, linear trapezoidal
Peptide text beside a SMILES is read from it. * marks the point of attachment. βGlc = OC[C@H]1O[C@@H](*)[C@H](O)[C@@H](O)[C@@H]1O
quantityMeasured: AUC(0-t) (µg·h/mL)
The reply should contain only the number, in µg·h/mL.

For the compound shown here, CC[C@H](C)[C@H](NC(=O)[C@H](Cc1ccc(O)cc1)NC(=O)[C@@H](NC(=O)[C@H](CCCNC(=N)N)NC(=O)[C@@H](N)CC(=O)O)C(C)C)C(=O)N[C@@H](Cc1c[nH]cn1)C(=O)N[C@@H](CO[C@@H]1O[C@H](CO)[C@@H](O)[C@H](O)[C@H]1O)C(N)=O [PNA5, Ang-1–6-Ser-O-Glu-NH2] (H-DRVYIHS(βGlc)-NH2) , give the reported AUC(0-t). 1.27

###

experiment: Toxicokinetics of PNA5 in Beagle dog plasma; settings: both, Beagle, dog, plasma, sc, 20 mg/kg/day, Cmax, Beagle dogs, plasma, s.c. once daily 20 mg/kg/day, day 28, sexes combined, mean ± SD, n = 10, UHPLC-MS/MS, noncompartmental
Peptide text beside a SMILES is read from it. * marks the point of attachment. βGlc = OC[C@H]1O[C@@H](*)[C@H](O)[C@@H](O)[C@@H]1O
quantityMeasured: Cmax (ng/mL)
The reply should contain only the number, in ng/mL.

For the molecule shown here, CC[C@H](C)[C@H](NC(=O)[C@H](Cc1ccc(O)cc1)NC(=O)[C@@H](NC(=O)[C@H](CCCNC(=N)N)NC(=O)[C@@H](N)CC(=O)O)C(C)C)C(=O)N[C@@H](Cc1c[nH]cn1)C(=O)N[C@@H](CO[C@@H]1O[C@H](CO)[C@@H](O)[C@H](O)[C@H]1O)C(N)=O [PNA5, Ang-1–6-Ser-O-Glu-NH2] (H-DRVYIHS(βGlc)-NH2) , give the reported Cmax. 1120

###

test: Toxicokinetics of PNA5 in Sprague Dawley rat plasma; conditions: both, Sprague Dawley, rat, plasma, sc, 5 mg/kg/day, Half-life, rats, plasma, s.c. 5 mg/kg/day, day 28, sexes combined, mean ± SD, n = 6, Ln(2)/Kel
Peptide text beside a SMILES is read from it. * marks the point of attachment. βGlc = OC[C@H]1O[C@@H](*)[C@H](O)[C@@H](O)[C@@H]1O
quantityMeasured: half-life (min)
The reply should contain only the number, in min.

For the compound shown here, CC[C@H](C)[C@H](NC(=O)[C@H](Cc1ccc(O)cc1)NC(=O)[C@@H](NC(=O)[C@H](CCCNC(=N)N)NC(=O)[C@@H](N)CC(=O)O)C(C)C)C(=O)N[C@@H](Cc1c[nH]cn1)C(=O)N[C@@H](CO[C@@H]1O[C@H](CO)[C@@H](O)[C@H](O)[C@H]1O)C(N)=O [PNA5, Ang-1–6-Ser-O-Glu-NH2] (H-DRVYIHS(βGlc)-NH2) , give the reported half-life. 22.2

###

experiment: Toxicokinetics of PNA5 in Beagle dog plasma; conditions: male, Beagle, dog, plasma, sc, 20 mg/kg/day, mean AUC0–2hr, males, dogs, males, 20 mg/kg/day (NOAEL), day 28
Peptide text beside a SMILES is read from it. * marks the point of attachment. βGlc = OC[C@H]1O[C@@H](*)[C@H](O)[C@@H](O)[C@@H]1O
quantityMeasured: AUC(0-t) (ng·h/mL)
The reply should contain only the number, in ng·h/mL.

For the compound shown here, CC[C@H](C)[C@H](NC(=O)[C@H](Cc1ccc(O)cc1)NC(=O)[C@@H](NC(=O)[C@H](CCCNC(=N)N)NC(=O)[C@@H](N)CC(=O)O)C(C)C)C(=O)N[C@@H](Cc1c[nH]cn1)C(=O)N[C@@H](CO[C@@H]1O[C@H](CO)[C@@H](O)[C@H](O)[C@H]1O)C(N)=O [PNA5, Ang-1–6-Ser-O-Glu-NH2] (H-DRVYIHS(βGlc)-NH2) , give the reported AUC(0-t). 1000

###

experiment: Toxicokinetics of PNA5 in Beagle dog plasma; details: both, Beagle, dog, plasma, sc, 1 mg/kg/day, Cmax, Beagle dogs, plasma, s.c. once daily 1 mg/kg/day, day 28, sexes combined, mean ± SD, n = 6, UHPLC-MS/MS, noncompartmental
Peptide text beside a SMILES is read from it. * marks the point of attachment. βGlc = OC[C@H]1O[C@@H](*)[C@H](O)[C@@H](O)[C@@H]1O
quantityMeasured: Cmax (ng/mL)
The reply should contain only the number, in ng/mL.

For the molecule shown here, CC[C@H](C)[C@H](NC(=O)[C@H](Cc1ccc(O)cc1)NC(=O)[C@@H](NC(=O)[C@H](CCCNC(=N)N)NC(=O)[C@@H](N)CC(=O)O)C(C)C)C(=O)N[C@@H](Cc1c[nH]cn1)C(=O)N[C@@H](CO[C@@H]1O[C@H](CO)[C@@H](O)[C@H](O)[C@H]1O)C(N)=O [PNA5, Ang-1–6-Ser-O-Glu-NH2] (H-DRVYIHS(βGlc)-NH2) , give the reported Cmax. 146

###

experiment: Toxicokinetics of PNA5 in Sprague Dawley rat plasma; conditions: both, Sprague Dawley, rat, plasma, sc, 1 mg/kg/day, Tmax, rats, plasma, s.c. 1 mg/kg/day, day 1, sexes combined, average (range lowest to highest)
Peptide text beside a SMILES is read from it. * marks the point of attachment. βGlc = OC[C@H]1O[C@@H](*)[C@H](O)[C@@H](O)[C@@H]1O
quantityMeasured: Tmax (min)
The reply should contain only the number, in min.

For the compound shown here, CC[C@H](C)[C@H](NC(=O)[C@H](Cc1ccc(O)cc1)NC(=O)[C@@H](NC(=O)[C@H](CCCNC(=N)N)NC(=O)[C@@H](N)CC(=O)O)C(C)C)C(=O)N[C@@H](Cc1c[nH]cn1)C(=O)N[C@@H](CO[C@@H]1O[C@H](CO)[C@@H](O)[C@H](O)[C@H]1O)C(N)=O [PNA5, Ang-1–6-Ser-O-Glu-NH2] (H-DRVYIHS(βGlc)-NH2) , give the reported Tmax. 6.6

###

assay: Toxicokinetics of PNA5 in Sprague Dawley rat plasma; settings: both, Sprague Dawley, rat, plasma, sc, 5 mg/kg/day, Cmax, Sprague Dawley rats, plasma, s.c. once daily 5 mg/kg/day, day 1, sexes combined, mean ± SD, n = 6, UHPLC-MS/MS, noncompartmental
Peptide text beside a SMILES is read from it. * marks the point of attachment. βGlc = OC[C@H]1O[C@@H](*)[C@H](O)[C@@H](O)[C@@H]1O
quantityMeasured: Cmax

For the compound shown here, CC[C@H](C)[C@H](NC(=O)[C@H](Cc1ccc(O)cc1)NC(=O)[C@@H](NC(=O)[C@H](CCCNC(=N)N)NC(=O)[C@@H](N)CC(=O)O)C(C)C)C(=O)N[C@@H](Cc1c[nH]cn1)C(=O)N[C@@H](CO[C@@H]1O[C@H](CO)[C@@H](O)[C@H](O)[C@H]1O)C(N)=O [PNA5, Ang-1–6-Ser-O-Glu-NH2] (H-DRVYIHS(βGlc)-NH2) , give the reported Cmax. 3.37 ng/mL

###

test: Toxicokinetics of PNA5 in Beagle dog plasma; details: both, Beagle, dog, plasma, sc, 20 mg/kg/day, Tmax, dogs, plasma, s.c. 20 mg/kg/day, day 28, sexes combined, table: average (range); text b115: median
Peptide text beside a SMILES is read from it. * marks the point of attachment. βGlc = OC[C@H]1O[C@@H](*)[C@H](O)[C@@H](O)[C@@H]1O
quantityMeasured: Tmax
Write your answer as a measured quantity: the number, then the unit.

For the compound shown here, CC[C@H](C)[C@H](NC(=O)[C@H](Cc1ccc(O)cc1)NC(=O)[C@@H](NC(=O)[C@H](CCCNC(=N)N)NC(=O)[C@@H](N)CC(=O)O)C(C)C)C(=O)N[C@@H](Cc1c[nH]cn1)C(=O)N[C@@H](CO[C@@H]1O[C@H](CO)[C@@H](O)[C@H](O)[C@H]1O)C(N)=O [PNA5, Ang-1–6-Ser-O-Glu-NH2] (H-DRVYIHS(βGlc)-NH2) , give the reported Tmax. 22.5 min

###

assay: Toxicokinetics of PNA5 in Sprague Dawley rat plasma; settings: both, Sprague Dawley, rat, plasma, sc, 40 mg/kg/day, Tmax, rats, plasma, s.c. 40 mg/kg/day, day 1, sexes combined, average (range lowest to highest)
Peptide text beside a SMILES is read from it. * marks the point of attachment. βGlc = OC[C@H]1O[C@@H](*)[C@H](O)[C@@H](O)[C@@H]1O
quantityMeasured: Tmax (min)
The reply should contain only the number, in min.

For the molecule shown here, CC[C@H](C)[C@H](NC(=O)[C@H](Cc1ccc(O)cc1)NC(=O)[C@@H](NC(=O)[C@H](CCCNC(=N)N)NC(=O)[C@@H](N)CC(=O)O)C(C)C)C(=O)N[C@@H](Cc1c[nH]cn1)C(=O)N[C@@H](CO[C@@H]1O[C@H](CO)[C@@H](O)[C@H](O)[C@H]1O)C(N)=O [PNA5, Ang-1–6-Ser-O-Glu-NH2] (H-DRVYIHS(βGlc)-NH2) , give the reported Tmax. 8.4
